Every entry's value here was drawn from ChEMBL document CHEMBL3407421.

Test: Retention time of the compound
Format: physicochemical
QUANTITY: Retention_time (min)
Number only, in min; omit the unit.

So what's the measured Retention_time for this one? "CC(=O)c1sc(Nc2ccc(C)c(Cl)c2)nc1C" 14.38

So what's the measured Retention_time for this one? "CCOC(=O)c1sc(Nc2ccc(C)c(C)c2)nc1C1CC1" 10.18

So what's the measured Retention_time for this one? "CCOC(=O)c1sc(Nc2ccc(C)c(C)c2)nc1C" 16.56

So what's the measured Retention_time for this one? "CC(=O)c1sc(Nc2ccc(Br)cc2)nc1C" 13.52

So what's the measured Retention_time for this one? "CC(=O)c1sc(Nc2ccc(Br)c(C(F)(F)F)c2)nc1C" 16.48

So what's the measured Retention_time for this one? "CCOC(=O)c1sc(Nc2ccc(-c3cccc(OC)c3)cc2F)nc1-c1ccccc1" 10.96

So what's the measured Retention_time for this one? "CCOC(=O)c1sc(Nc2ccc3c(c2)OCO3)nc1-c1ccccc1" 7.28

So what's the measured Retention_time for this one? "CCOC(=O)c1sc(Nc2ccc(Cl)c(C(F)(F)F)c2)nc1-c1ccccc1" 11.06

So what's the measured Retention_time for this one? "CCOC(=O)c1sc(Nc2ccc(C)c(F)c2)nc1C" 8.14

So what's the measured Retention_time for this one? "CCOC(=O)c1sc(Nc2ccc(C(F)(F)F)cc2)nc1-c1ccccc1" 9.86

So what's the measured Retention_time for this one? "CC(=O)c1sc(Nc2ccccc2)nc1C" 9.94

So what's the measured Retention_time for this one? "CCOC(=O)c1sc(Nc2ccc(C)c(F)c2)nc1C1CC1" 9.96

* * *

Please respond with reported Retention_time for every item in the list.
Assay: Retention time of the compound
Format: physicochemical
Number first, unit second: that is the form wanted.

So what's the measured Retention_time for this one? "CCOC(=O)c1sc(Nc2ccc(C)c(F)c2)nc1C(C)(C)C" 11.92 min

So what's the measured Retention_time for this one? "CC(=O)c1sc(Nc2ccc(C)c(C)c2)nc1C" 12.41 min

So what's the measured Retention_time for this one? "CCOC(=O)c1sc(Nc2ccc(C)c(Cl)c2)nc1C(C)(C)C" 13.12 min

So what's the measured Retention_time for this one? "CC(=O)c1sc(Nc2ccc(C)c(F)c2)nc1C" 5.82 min

So what's the measured Retention_time for this one? "CC(=O)c1sc(Nc2ccc3cc4ccccc4cc3c2)nc1C" 16.95 min

So what's the measured Retention_time for this one? "CCOC(=O)c1sc(Nc2ccc(C)c(C)c2)nc1C(C)(C)C" 12.16 min

* * *

Test: Retention time of the compound
Assay type: physicochemical
Please respond with reported Retention_time for every item in the list.
Number only, in min; omit the unit.

So what's the measured Retention_time for this one? "CCOC(=O)c1sc(Nc2ccc(Cl)c(C(F)(F)F)c2)nc1N" 7.1

So what's the measured Retention_time for this one? "CCOC(=O)c1sc(Nc2ccc(-c3ccccc3)cc2F)nc1-c1ccccc1" 11.33

So what's the measured Retention_time for this one? "CCOC(=O)c1sc(Nc2ccc(-c3cccc(OC)c3)cc2)nc1-c1ccccc1" 10.45

So what's the measured Retention_time for this one? "CCOC(=O)c1sc(Nc2ccc(-c3ccccc3)cc2)nc1-c1ccccc1" 10.81

So what's the measured Retention_time for this one? "CC(=O)c1sc(Nc2ccc3ccccc3c2)nc1C" 13.39

So what's the measured Retention_time for this one? "CCOC(=O)c1sc(Nc2ccc(Cl)c(C(F)(F)F)c2)nc1NC(=O)c1ccccc1" 8.06

So what's the measured Retention_time for this one? "CCOC(=O)c1sc(Nc2cc(Cl)cc(Cl)c2)nc1-c1ccccc1" 11.83

So what's the measured Retention_time for this one? "CCOC(=O)c1sc(Nc2ccc(C)c(C)c2)nc1N" 9.57

So what's the measured Retention_time for this one? "CCOC(=O)c1sc(Nc2ccc(Br)cc2)nc1C" 17.56

So what's the measured Retention_time for this one? "CCOC(=O)c1sc(Nc2ccc(Cl)c(Cl)c2)nc1-c1ccccc1" 11.11

So what's the measured Retention_time for this one? "CCOC(=O)c1sc(Nc2ccc(C)c(C)c2)nc1NC(=O)c1ccccc1" 7.51
